procedureText: chemical genetic growth profiling, strain panel (AID 1159580);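 further: tested at 20 µM; growth read once vehicle control cultures reached saturation at 30 °C; 1 = growth at the plate median or of vehicle wells; lower values mean less growth of the strain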
assayConditions: S. cerevisiae deletion strains, growth OD, locus YLR418C, strain cdc73, stronger effect = lower value
Screen size: about 5,500 compounds; about 2,000 (36%) were called active. Another 18% or so got no clear call; they are omitted. The list shows a part of the results.

# compound, normalized growth
rows = [
    ("NCCCS(=O)(=O)O", 1.01),
    ("CNC(=O)O/N=C(\\C)SC", 1.01),
    ("C=CCc1ccc(OC(=O)c2ccccc2)c(OC)c1", 0.935),
    ("COC(=O)C[C@H]1C2(C)CC34OC5(C)O[C@@]6([C@H](OC(C)=O)C(OC(C)=O)[C@]7(C)C(/C(=C(/O)C(C)C)C(=O)O[C@H]7c7ccoc7)[C@@]6(O5)[C@H](OC(C)=O)[C@@]3(O)C2OC(=O)C(C)C)[C@]14C (some centres undefined)", 1.07),
    ("NC(=O)c1ccc[n+]([C@@H]2O[C@H](COP(=O)([O-])OP(=O)(O)OC[C@H]3O[C@@H](n4cnc5c(N)ncnc54)[C@H](OP(=O)(O)O)[C@@H]3O)[C@@H](O)[C@H]2O)c1", 1.04),
    ("CCC(C)C(=O)OC1CC2(C)C(c3ccoc3)OC(=O)CC23OC2(C)OC34C(OC(=O)C(C)C)C3(O)C(OC(=O)C5(C)OC5C)C5(C)CC3(O)C(C)(C5C(=O)OC)C14O2 (centres undefined)", 0.985),
    ("COc1ccc2c(c1)OC/C(=C/c1ccc(OC)c(OC)c1)C2=O", 0.621),
    ("COc1cc2c(cc1OC)C(=O)c1ccc(OC)c(OC)c1OCC(=O)C2", 1.01),
    ("CCC(C)C(=O)O[C@@H]1C[C@@]2(C)[C@H](c3ccoc3)OC(=O)CC23OC2(C)OC34[C@H](OC(=O)C(C)C)[C@@]3(O)[C@@H](OC(=O)C5(C)OC5C)[C@@]5(C)C[C@]3(O)[C@@](C)([C@H]5CC(=O)OC)C14O2 (some centres undefined)", 1.04),
    ("CN(C)CCN(Cc1cccs1)c1ccccn1", 1.02),
    ("NCCc1cnc[nH]1", 1.04),
    ("O=C1NCC2(CCN(CCc3ccccc3)CC2)O1", 0.981),
    ("O=C(O)/C=C/c1ccc(O)c(O)c1", 1.05),
    ("O=c1cccc2ccc(O)c(O)c2c1O", 0.26),
]
